B1: RHOBTB3 (parent)
chain: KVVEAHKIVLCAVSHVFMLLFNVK

# Variants of: B1
# PROTOCOL SUMMARY: protein stability index of a GFP-peptide fusion (GPS, HEK-293T) (PSI 1-6); higher = more stable;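 further: lentivirally expressed fusions sorted by FACS into six bins by GFP to DsRed ratio, PSI derived from sequencing read proportions per bin multiplied by bin number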
# CONDITION: c terminus: a fixed tail appended
QUANTITY KIND: protein stability index
Note: the reply should be a number with no unit written.

Examples with their reported protein stability index follow.
[
  {
    "SEQUENCE CONTENT": "KVVEAHKPVLCAVSHVFMLLFNVK [I8P]",
    "RECORDED RESULT": 2.29
  },
  {
    "SEQUENCE CONTENT": "KVPEAHKIVLCAVSHVFMLLFNVK [V3P]",
    "RECORDED RESULT": 3.35
  },
  {
    "SEQUENCE CONTENT": "KIVEAHKIVLCAVSHVFMLLFNVK [V2I]",
    "RECORDED RESULT": 3.58
  },
  {
    "SEQUENCE CONTENT": "KVVVAHKIVLCAVSHVFMLLFNVK [E4V]",
    "RECORDED RESULT": 2.79
  },
  {
    "SEQUENCE CONTENT": "KVVEAHKIVLCAVSRVFMLLFNVK [H15R]",
    "RECORDED RESULT": 2.27
  },
  {
    "SEQUENCE CONTENT": "KVVMAHKIVLCAVSHVFMLLFNVK [E4M]",
    "RECORDED RESULT": 2.54
  }
]

Challenge: For the variant shown here, KVVEAHKIVLCAVSHCFMLLFNVK [V16C] , give the reported protein stability index.
Response given: 3.59

Challenge: Further, for KVFEAHKIVLCAVSHVFMLLFNVK [V3F] ?
Response given: 3.62

Challenge: Also KVVEAHKIVLCAVSHVFMLLFNVM [K24M] ?
Response given: 2.27

Challenge: Again, but for KVVEAHKILLCAVSHVFMLLFNVK [V9L]
Response given: 3.24

Challenge: Next variant up: KAVEAHKIVLCAVSHVFMLLFNVK [V2A]
Response given: 2.96

Challenge: And the next one, KVVEAHKIVLPAVSHVFMLLFNVK [C11P] ?
Response given: 2.8

Challenge: Repeat with KVVEAHKIVLCAVSHVFMGLFNVK [L19G]
Response given: 2.75

Challenge: Now try KVVYAHKIVLCAVSHVFMLLFNVK [E4Y] .
Response given: 2.75

Challenge: Can you handle KVVEAHQIVLCAVSHVFMLLFNVK [K7Q] next?
Response given: 3
